Catalogue of molecules with associated solubility at 24 h
- assay name: Solubility measurement (DMSO solution method), McIlvaine buffer pH 4.5 or 6.8
- Format: physicochemical
- test parameters: aqueous buffer, kinetic from dmso stock; McIlvaine buffer pH 6.8; DMSO stock diluted to 250 μM; 24 h shaking at ambient temperature; read-out: solubility pH 6.8
Give the value in µg/mL but do not write µg/mL after it.

[Q] What measured solubility at 24 h goes with "C[C@H](Oc1cc(N2CCN(C)C3(COC3)C2)nc(-c2onc3c2CCC[C@@]32CCCc3sc(N)c(C#N)c32)n1)[C@@H]1C[C@@H](F)CN1C" ?
[A] 17

[Q] Likewise for "COCc1cn(-c2cc(O[C@@H](C)[C@@H]3CCCN3C)nc(-c3noc4c3CCC[C@@]43CCCc4sc(N)c(C#N)c43)n2)nn1" ?
[A] 69

[Q] What do we get for "C[C@H](Oc1cc(N2CCN(C)C3(CC3)C2)nc(-c2onc3c2CCC[C@@]32CCCc3sc(N)c(C#N)c32)n1)[C@@H]1CCCN1C" ?
[A] 118

[Q] Would you kindly repeat that for "C[C@H](Oc1cc(Cl)nc(-c2onc3c2CCC[C@@]32CCCc3sc(N)c(C#N)c32)n1)[C@@H]1CCCN1C" ?
[A] 101

[Q] Please answer likewise for "C[C@H]1CN(C)CCCN1c1nc(-c2onc3c2CCC[C@@]32CCCc3sc(N)c(C#N)c32)cc(N2CCN(C)C3(CC3)C2)n1"
[A] 99
